Would you kindly list IC50 for each of these molecules?
measuredOn: CD73 on U138 neuroglioma cells (Homo sapiens, UniProt P21589)
Construct: U138 neuroglioma cells, which express CD73 on their surface; endogenous in cells; host or cells: U138 neuroglioma cells (ATCC)
protocolSummary: Inhibition of Ecto-5′-Nucleotidase Activity in U138 Neuroglioma Cells (Assay 2)
Type: cell-based
measurementContext: 50 μM CMP, 2 hr at 37° C., malachite green readout, read-out: Assay 2: IC50, inhibition of ecto-5′-nucleotidase activity in U138 neuroglioma cells

Kindly state the measured IC50 obtained for O=C(O)C(OC[C@H]1O[C@@H](n2cnc3c(NO)nc(I)nc32)[C@H](O)[C@@H]1O)P(=O)(O)O (stereo partly drawn) [Example 59b] with CD73 on U138 neuroglioma cells (Homo sapiens, UniProt P21589).
100 to 1000 nM

Would you kindly repeat that for CCOC(=O)[C@H](OC[C@H]1O[C@@H](n2cnc3c(N)nc(Cl)nc32)[C@H](O)[C@@H]1O)P(=O)(O)O (single isomer, unassigned) [1, isomer 1] ?
< 100 nM

Param item: CC(C)CNC(=O)[C@@H](OC[C@H]1O[C@@H](n2cnc3c(N)nc(Cl)nc32)[C@H](O)[C@@H]1O)P(=O)(O)O (single isomer, unassigned) [Example 17a]
< 100 nM

What would you report for Nc1nc(Cl)nc2c1ncn2[C@@H]1O[C@H](COC(C(=O)O)P(=O)(O)O)[C@@H](O)[C@H]1O (single isomer, unassigned) ?
< 100 nM

Same again, this time with CCOC(=O)[C@H](OC[C@H]1O[C@@H](n2cnc3c(C)nc(Cl)nc32)[C@H](O)[C@@H]1O)P(=O)(O)O (single isomer, unassigned)
< 100 nM

Next entry: CCNc1nc(Cl)nc2c1ncn2[C@@H]1O[C@H](CO[C@@](C)(C(=O)OCC)P(=O)(O)O)[C@@H](O)[C@H]1O
< 100 nM

Try the molecule CC(C)(C)OC(=O)[C@H](OC[C@H]1O[C@@H](n2cnc3c(N)nc(C#N)nc32)[C@H](O)[C@@H]1O)P(=O)(O)O [Example 54a]
> 1000 nM

Thanks! And CNc1ncnc2c1ncn2[C@@H]1O[C@H](COC(C(=O)O)P(=O)(O)O)[C@@H](O)[C@H]1O (stereo partly drawn) ?
> 1000 nM

Same lookup for CC(C)COC(=O)[C@@H](OC[C@H]1O[C@@H](n2cnc3c(N)nc(Cl)nc32)[C@H](O)[C@@H]1O)P(=O)(O)O (single isomer, unassigned) [Example 14a] , please.
100 to 1000 nM

Repeat for the following molecule: O=C(O)C(OC[C@H]1O[C@@H](n2cnc3c(N[C@@H]4CCOC4)nc(Cl)nc32)[C@H](O)[C@@H]1O)C(=O)O [Example 68]
100 to 1000 nM

Same for CCOC(=O)[C@@](C)(OC[C@H]1O[C@@H](n2cnc3c(N)nc(Cl)nc32)[C@H](O)[C@@H]1O)P(=O)(O)O (single isomer, unassigned)
100 to 1000 nM

Continue with CCN(CC)C(=O)[C@@H](OC[C@H]1O[C@@H](n2cnc3c(N)nc(Cl)nc32)[C@H](O)[C@@H]1O)P(=O)(O)O (single isomer, unassigned)
100 to 1000 nM

---

measuredOn: human CD73 (Homo sapiens, UniProt P21589)
Construct: purchased R&D Systems 5795-EN-010
Sequence (P21589 27-549): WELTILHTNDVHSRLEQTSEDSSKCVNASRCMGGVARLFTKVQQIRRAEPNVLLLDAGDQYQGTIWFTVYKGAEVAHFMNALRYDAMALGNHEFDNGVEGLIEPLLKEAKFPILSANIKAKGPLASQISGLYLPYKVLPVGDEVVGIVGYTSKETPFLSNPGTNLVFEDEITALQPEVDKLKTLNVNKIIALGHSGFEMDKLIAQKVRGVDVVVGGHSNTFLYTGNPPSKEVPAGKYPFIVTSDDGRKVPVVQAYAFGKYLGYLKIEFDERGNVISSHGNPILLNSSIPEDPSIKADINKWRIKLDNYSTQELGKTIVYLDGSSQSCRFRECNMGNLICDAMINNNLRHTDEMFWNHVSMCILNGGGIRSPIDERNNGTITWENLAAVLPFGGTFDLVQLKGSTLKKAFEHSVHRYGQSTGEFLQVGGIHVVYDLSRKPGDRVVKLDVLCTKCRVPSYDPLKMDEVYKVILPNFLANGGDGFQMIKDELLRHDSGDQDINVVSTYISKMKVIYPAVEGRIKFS
protocolSummary: Inhibition of 5′-Nucleotidase Activity of CD73 (Assay 1)
Assay type: biochemical
measurementContext: human CD73 4 ng/ml, 50 μM CMP, 20 min at RT, malachite green readout; read-out: Assay 1: IC50, inhibition of 5′-nucleotidase activity of CD73
pIC50: −log10 of the molar value.
Please respond with reported pIC50 for every item in the list.

Consider the molecule shown here: CCOC(=O)[C@@H](OC[C@H]1O[C@@H](n2cnc3c(-n4ccnc4)nc(Cl)nc32)[C@H](O)[C@@H]1O)P(=O)(O)O (single isomer, unassigned) [Example 26a] What is its recorded pIC50?
6.00 to 7.00

Next entry: N#Cc1ccc(CC(OC[C@H]2O[C@@H](n3cnc4c(N)nc(Cl)nc43)[C@H](O)[C@@H]2O)(C(=O)O)C(=O)O)cc1
> 7.00

Also need O=C(O)C(OC[C@H]1O[C@@H](n2cnc3c(N[C@@H]4CCOC4)nc(Cl)nc32)[C@H](O)[C@@H]1O)C(=O)O [Example 69] , thanks.
6.00 to 7.00

Thanks! And Nc1ncnc2c1ncn2[C@@H]1O[C@H](COC(C(=O)NO)P(=O)(O)O)[C@@H](O)[C@H]1O (stereo partly drawn) ?
< 6.00

Now try CCOC(=O)[C@@H](OC[C@H]1O[C@@H](n2cnc3c(NCc4ccccc4)nc(Cl)nc32)[C@H](O)[C@@H]1O)P(=O)(O)O (single isomer, unassigned) [Example 24a] .
6.00 to 7.00

Can you handle CCOC(=O)[C@H](OC[C@H]1O[C@@H](n2cnc3c(OCC)nc(Cl)nc32)[C@H](O)[C@@H]1O)P(=O)(O)O (single isomer, unassigned) next?
> 7.00
